- Species: Rattus norvegicus
- assay_method_text: Open TG-GATES - Regimen: Single
- Assay type: toxicity, organism-based, Sprague-Dawley
- Set-up: regimen Single, gender Male, age 6 weeks
- test_settings: in vivo, po, 0 mg/kg, 9 h, tissue Blood, route gavage, dose level Control
measured_endpoint: PT (s)
// note: answer is a bare numeric in s

-- ask Return reported PT. Input compound: "CN1C(=O)OC(C)(C)C1=O"
-- reply 13.7

-- ask For "CCC(C)(C)C(=O)O[C@H]1C[C@@H](C)C=C2C=C[C@H](C)[C@H](CC[C@@H]3C[C@@H](O)CC(=O)O3)[C@H]21" , write its PT.
-- reply 11.7

-- ask Indicate its recorded PT; the compound in question is "C[C@]12CCC(=O)C=C1CC[C@@H]1[C@@H]2CC[C@@]2(C)[C@H]1CC[C@]2(C)O"
-- reply 12.8

-- ask Name the recorded PT of the item "CC(=O)Oc1cc(C(C)C)c(OCCN(C)C)cc1C" in your answer.
-- reply 16.1

-- ask Answer with the recorded PT of "C#C[C@]1(O)CC[C@H]2[C@@H]3CCc4cc(O)ccc4[C@H]3CC[C@@]21C" only.
-- reply 12.4

-- ask Tell us which PT value is on record for CCN1CCCC1CNC(=O)c1cc(S(N)(=O)=O)ccc1OC (centres undefined) [SULPIRIDE]
-- reply 13.5

-- ask Determine its reported PT: CC(=N)S [THIOACETAMIDE]
-- reply 12.4

-- ask Look up PT of "Oc1ncnc2[nH]ncc12" and report it.
-- reply 12.3

-- ask Respond only with PT recorded for "Nc1nc(N)c2nc(-c3ccccc3)c(N)nc2n1"
-- reply 14
